Test: BSK_KF3CT_SRB: Viability Assessment in the BioMAP Diversity Plus: KF3CT Assay (AID 2283069);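 note: total protein by sulforhodamine B staining as a cytotoxicity measure; read 24 h after compound addition; fitted for both signal gain and loss against DMSO baseline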
Conditions: primary human keratinocytes with fibroblasts
Activity calls are given as the source filed them. Rule for the calls: active = hit-call score of the fitted dose curve at least 0.9, where 1 is the maximum; inactive = score below 0.9.
Classes used: true (1) for active, false (0) for inactive

Molecule	Assigned Category
Oc1ccccc1	false (0)
CCOC(=O)O[C@H](C)OC(=O)c1ccc2c(c1)cc(C(=O)NC1CCN(C(C)C)CC1)n2Cc1cc(-c2ccc(Cl)s2)on1	true (1)
OC12N=C(c3ccccc3)SC1Cc1cc(Cl)ccc12 (centres undefined)	false (0)
O=C(O)Cn1c(=O)n(Cc2ccc(Br)cc2F)c(=O)c2ccc(Cl)cc21	false (0)

Measured values drawn from PubChem BioAssay (EPA / NIEHS) for this set.
